Readings of pEC50 for the listed molecules
target: Toll-like receptor 4 (Homo sapiens, UniProt O00206); experiment: Agonist activity at human TLR4 expressed in HEK293 blue cells assessed as induction of NF-kappaB activation-mediated SEAP production after 20 to 24 hrs by colorimetric assay
Sequence (O00206 whole entry): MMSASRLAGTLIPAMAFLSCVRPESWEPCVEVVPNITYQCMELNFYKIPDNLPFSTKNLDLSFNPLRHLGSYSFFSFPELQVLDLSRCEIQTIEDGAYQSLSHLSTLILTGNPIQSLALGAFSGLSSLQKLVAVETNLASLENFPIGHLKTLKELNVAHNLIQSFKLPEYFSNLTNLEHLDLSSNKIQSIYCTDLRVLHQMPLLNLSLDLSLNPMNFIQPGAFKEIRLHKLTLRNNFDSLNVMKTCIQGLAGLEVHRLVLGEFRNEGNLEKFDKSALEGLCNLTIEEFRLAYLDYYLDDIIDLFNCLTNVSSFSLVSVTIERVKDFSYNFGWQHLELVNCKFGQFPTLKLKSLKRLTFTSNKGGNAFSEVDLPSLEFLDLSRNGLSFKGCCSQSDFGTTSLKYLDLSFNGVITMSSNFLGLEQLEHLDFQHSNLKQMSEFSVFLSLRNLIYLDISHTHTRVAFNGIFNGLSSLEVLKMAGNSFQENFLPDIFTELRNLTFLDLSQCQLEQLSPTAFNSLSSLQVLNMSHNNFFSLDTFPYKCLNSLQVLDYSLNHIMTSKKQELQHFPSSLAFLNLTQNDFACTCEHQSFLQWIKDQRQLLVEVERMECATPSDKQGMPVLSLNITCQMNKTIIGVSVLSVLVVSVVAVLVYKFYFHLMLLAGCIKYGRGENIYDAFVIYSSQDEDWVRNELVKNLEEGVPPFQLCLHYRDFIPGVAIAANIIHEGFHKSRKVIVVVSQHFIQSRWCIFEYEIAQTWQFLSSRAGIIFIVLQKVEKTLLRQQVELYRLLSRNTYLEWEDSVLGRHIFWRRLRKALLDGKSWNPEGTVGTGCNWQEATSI
pEC50: −log10 of the molar value.
quantity_kind: pEC50

[[record]]
cpd_smiles = "Cn1c2ccc(Br)cc2c2nc(SCC(=O)NC3CCCCC3)n(-c3ccccc3)c(=O)c21"
assay_value = 5.45

[[record]]
cpd_smiles = "Cn1c2ccccc2c2nc(NCCC(=O)NC3CCCCC3)n(-c3ccccc3)c(=O)c21"
assay_value = "< 5.00"

[[record]]
cpd_smiles = "Cn1c2c(c3nc(SCC(=O)NC4CCCCC4)n(-c4ccccc4)c(=O)c31)CCCCC2"
assay_value = "< 5.00"

[[record]]
cpd_smiles = "Cn1c2ccc(-c3ccc4ccccc4c3)cc2c2nc(SCC(=O)NC3CCCCC3)n(-c3ccccc3)c(=O)c21"
assay_value = 6.04

[[record]]
cpd_smiles = "Cn1c2ccc(I)cc2c2nc(SCC(=O)NC3CCCCC3)n(-c3ccccc3)c(=O)c21"
assay_value = 5.43

[[record]]
cpd_smiles = "Cn1c2ccc(N)cc2c2nc(SCC(=O)NC3CCCCC3)n(-c3ccccc3)c(=O)c21"
assay_value = "< 5.00"

[[record]]
cpd_smiles = "Cn1ccc2nc(SCC(=O)NC3CCCCC3)n(-c3ccccc3)c(=O)c21"
assay_value = "< 5.00"

[[record]]
cpd_smiles = "Cn1c2cc(Br)ccc2c2nc(SCC(=O)NC3CCCCC3)n(-c3ccccc3)c(=O)c21"
assay_value = "< 5.00"

[[record]]
cpd_smiles = "Cn1c2cc(C#N)ccc2c2nc(SCC(=O)NC3CCCCC3)n(-c3ccccc3)c(=O)c21"
assay_value = "< 5.00"


###

Readings of Activity for the listed compounds
target: Toll-like receptor 4 (Mus musculus) (UniProt Q9QUK6); assay: Agonist activity at TLR4 in C57BL/6 mouse primary BMDC assessed as induction of IL-6 release at 5 uM after 18 hrs by ELISA relative to N-cyclohexyl-2-(5-methyl-4-oxo-3-phenyl-4,5-dihydro-3H-pyrimido[5,4-b]indol-2-ylthio)acetamide
quantity_kind: Activity (%)

[[record]]
cpd_smiles = "O=c1c2[nH]c3ccccc3c2nc(SCCCC2CCCCC2)n1-c1ccccc1"
test_target = "Toll-like receptor 4 (Mus musculus) (UniProt Q9QUK6)"
quantity_kind = "Activity"
unit_abbreviation = "%"
assay_value = 0

[[record]]
cpd_smiles = "Cn1c2ccc(N)cc2c2nc(SCC(=O)NC3CCCCC3)n(-c3ccccc3)c(=O)c21"
test_target = "Toll-like receptor 4 (Mus musculus) (UniProt Q9QUK6)"
quantity_kind = "Activity"
unit_abbreviation = "%"
assay_value = 0

[[record]]
cpd_smiles = "O=C(CSc1nc2c3c([nH]c2c(=O)n1-c1ccccc1)CCCCC3)NC1CCCCC1"
test_target = "Toll-like receptor 4 (Mus musculus) (UniProt Q9QUK6)"
quantity_kind = "Activity"
unit_abbreviation = "%"
assay_value = 115

[[record]]
cpd_smiles = "Cn1c2ccc(NC(=O)CCC(=O)O)cc2c2nc(SCC(=O)NC3CCCCC3)n(-c3ccccc3)c(=O)c21"
test_target = "Toll-like receptor 4 (Mus musculus) (UniProt Q9QUK6)"
quantity_kind = "Activity"
unit_abbreviation = "%"
assay_value = 0

[[record]]
cpd_smiles = "Cn1c2ccccc2c2nc(S(=O)(=O)CC(=O)NC3CCCCC3)n(-c3ccccc3)c(=O)c21"
test_target = "Toll-like receptor 4 (Mus musculus) (UniProt Q9QUK6)"
quantity_kind = "Activity"
unit_abbreviation = "%"
assay_value = 0


###

target: Toll-like receptor 4 (Homo sapiens, UniProt O00206); test: Agonist activity at human TLR4 expressed in HEK293 blue cells assessed as induction of NF-kappaB activation-mediated SEAP production after 20 to 24 hrs by colorimetric assay
pEC50: −log10 of the molar value.
quantity_kind: pEC50

[[record]]
cpd_smiles = "Cn1c2ccccc2c2nc(NCC(=O)NC3CCCCC3)n(-c3ccccc3)c(=O)c21"
quantity_kind = "pEC50"
assay_value = "< 5.00"

[[record]]
cpd_smiles = "Cn1c2ccc(-c3ccccc3)cc2c2nc(SCC(=O)NC3CCCCC3)n(-c3ccccc3)c(=O)c21"
quantity_kind = "pEC50"
assay_value = 6.37

[[record]]
cpd_smiles = "O=C(CSc1nc2cc[nH]c2c(=O)n1-c1ccccc1)NC1CCCCC1"
quantity_kind = "pEC50"
assay_value = "< 5.00"

[[record]]
cpd_smiles = "Cc1c(C)n(C)c2c(=O)n(-c3ccccc3)c(SCC(=O)NC3CCCCC3)nc12"
quantity_kind = "pEC50"
assay_value = "< 5.00"

[[record]]
cpd_smiles = "Cn1c2ccccc2c2nc(S(=O)(=O)CC(=O)NC3CCCCC3)n(-c3ccccc3)c(=O)c21"
quantity_kind = "pEC50"
assay_value = "< 5.00"

[[record]]
cpd_smiles = "Cn1c2ccc(-c3ccc(-c4ccccc4)cc3)cc2c2nc(SCC(=O)NC3CCCCC3)n(-c3ccccc3)c(=O)c21"
quantity_kind = "pEC50"
assay_value = "< 5.00"

[[record]]
cpd_smiles = "Cn1c2ccc(NC(=O)CCC(=O)O)cc2c2nc(SCC(=O)NC3CCCCC3)n(-c3ccccc3)c(=O)c21"
quantity_kind = "pEC50"
assay_value = "< 5.00"

[[record]]
cpd_smiles = "Cn1c2ccccc2c2nc(OCC(=O)NC3CCCCC3)n(-c3ccccc3)c(=O)c21"
quantity_kind = "pEC50"
assay_value = "< 5.00"

[[record]]
cpd_smiles = "O=C(CCCSc1nc2c([nH]c3ccccc32)c(=O)n1-c1ccccc1)NC1CCCCC1"
quantity_kind = "pEC50"
assay_value = "< 5.00"

[[record]]
cpd_smiles = "Cn1c2ccccc2c2nc(SCC(=O)NC3CCCCC3)n(-c3ccccc3)c(=O)c21"
quantity_kind = "pEC50"
assay_value = 5.08

[[record]]
cpd_smiles = "C#Cc1ccc2c(c1)c1nc(SCC(=O)NC3CCCCC3)n(-c3ccccc3)c(=O)c1n2C"
quantity_kind = "pEC50"
assay_value = 5.49

[[record]]
cpd_smiles = "O=C(CCSc1nc2c([nH]c3ccccc32)c(=O)n1-c1ccccc1)NC1CCCCC1"
quantity_kind = "pEC50"
assay_value = "< 5.00"

[[record]]
cpd_smiles = "O=C(CSc1nc2c3c([nH]c2c(=O)n1-c1ccccc1)CCCCC3)NC1CCCCC1"
quantity_kind = "pEC50"
assay_value = 5.13


###

Target: Toll-like receptor 4 (Mus musculus)
Sequence (Q9QUK6 whole entry): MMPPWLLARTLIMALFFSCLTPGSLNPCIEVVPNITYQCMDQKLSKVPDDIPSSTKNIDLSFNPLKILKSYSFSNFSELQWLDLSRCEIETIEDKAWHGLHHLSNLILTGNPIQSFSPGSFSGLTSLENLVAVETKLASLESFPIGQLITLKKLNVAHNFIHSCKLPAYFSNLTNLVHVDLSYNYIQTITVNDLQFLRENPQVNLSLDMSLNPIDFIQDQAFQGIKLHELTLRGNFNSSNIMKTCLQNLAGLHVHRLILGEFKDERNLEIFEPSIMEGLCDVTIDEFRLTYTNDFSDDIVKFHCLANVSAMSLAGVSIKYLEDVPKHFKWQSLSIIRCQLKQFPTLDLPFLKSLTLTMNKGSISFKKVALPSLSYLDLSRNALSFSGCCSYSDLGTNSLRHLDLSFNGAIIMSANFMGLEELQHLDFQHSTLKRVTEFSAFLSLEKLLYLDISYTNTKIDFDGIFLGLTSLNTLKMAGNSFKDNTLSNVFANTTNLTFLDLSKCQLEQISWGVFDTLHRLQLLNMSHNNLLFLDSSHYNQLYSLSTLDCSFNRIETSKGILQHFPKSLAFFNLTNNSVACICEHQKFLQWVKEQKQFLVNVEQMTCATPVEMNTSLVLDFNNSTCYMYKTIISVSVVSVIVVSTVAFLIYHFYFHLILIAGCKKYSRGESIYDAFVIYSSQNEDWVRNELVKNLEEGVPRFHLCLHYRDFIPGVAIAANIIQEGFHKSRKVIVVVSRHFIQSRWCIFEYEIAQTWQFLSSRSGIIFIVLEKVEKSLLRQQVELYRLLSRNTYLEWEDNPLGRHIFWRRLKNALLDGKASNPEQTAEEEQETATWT
Assay: Agonist activity at mouse TLR4 expressed in HEK293 blue cells assessed as induction of NF-kappaB activation-mediated SEAP production after 20 to 24 hrs by colorimetric assay
quantity_kind: EC50

[[record]]
cpd_smiles = "Cn1c2ccc(N)cc2c2nc(SCC(=O)NC3CCCCC3)n(-c3ccccc3)c(=O)c21"
quantity_kind = "EC50"
assay_value = "> 10 µM"

[[record]]
cpd_smiles = "Cn1c2ccc(-c3cccc4ccccc34)cc2c2nc(SCC(=O)NC3CCCCC3)n(-c3ccccc3)c(=O)c21"
quantity_kind = "EC50"
assay_value = "2.58 µM"

[[record]]
cpd_smiles = "Cn1c2ccccc2c2nc(S(=O)(=O)CC(=O)NC3CCCCC3)n(-c3ccccc3)c(=O)c21"
quantity_kind = "EC50"
assay_value = "> 10 µM"

[[record]]
cpd_smiles = "Cn1c2ccc(-c3ccc(-c4ccccc4)cc3)cc2c2nc(SCC(=O)NC3CCCCC3)n(-c3ccccc3)c(=O)c21"
quantity_kind = "EC50"
assay_value = "> 10 µM"

[[record]]
cpd_smiles = "Cc1c(C)n(C)c2c(=O)n(-c3ccccc3)c(SCC(=O)NC3CCCCC3)nc12"
quantity_kind = "EC50"
assay_value = "> 10 µM"

[[record]]
cpd_smiles = "O=c1c2[nH]c3ccccc3c2nc(SCCCC2CCCCC2)n1-c1ccccc1"
quantity_kind = "EC50"
assay_value = "> 10 µM"

[[record]]
cpd_smiles = "O=C(CCSc1nc2c([nH]c3ccccc32)c(=O)n1-c1ccccc1)NC1CCCCC1"
quantity_kind = "EC50"
assay_value = "> 10 µM"

[[record]]
cpd_smiles = "Cn1c2ccc(C#C[Si](C)(C)C)cc2c2nc(SCC(=O)NC3CCCCC3)n(-c3ccccc3)c(=O)c21"
quantity_kind = "EC50"
assay_value = "3.3 µM"

[[record]]
cpd_smiles = "O=C(CSc1nc2cc[nH]c2c(=O)n1-c1ccccc1)NC1CCCCC1"
quantity_kind = "EC50"
assay_value = "> 10 µM"

